Tested on: Klebsiella pneumoniae
Assay: Antimicrobial activity against Klebsiella pneumoniae ATCC 10031 assessed as growth inhibition after 24 hr by broth microdilution method
Assay type: functional
Conditions: ATCC 10031, 24 h
REPORTED_ENDPOINT: MIC (µg/mL)
Report as a plain number; the unit µg/mL is understood.

Answered examples (4):
COMPOUND: CCOC(=O)Cc1csc(N2N=C(c3ccccc3)CC2c2c(F)cccc2F)n1 (configuration not stated)
RESULT_VALUE: 8

COMPOUND: Cc1ccc(-c2csc(N3N=C(c4ccccc4)CC3c3c(F)cccc3F)n2)cc1 (configuration not stated)
RESULT_VALUE: 4

COMPOUND: NC(=S)N1N=C(c2ccccc2)CC1c1c(F)cccc1F (configuration not stated)
RESULT_VALUE: 62.5

COMPOUND: O=[N+]([O-])c1ccc(-c2csc(N3N=C(c4ccccc4)CC3c3c(F)cccc3F)n2)cc1 (configuration not stated)
RESULT_VALUE: 16

input: So what's the measured MIC for this one? "O=C(/C=C/c1c(F)cccc1F)c1ccccc1"
output: 125

input: Then what about the compound O=[N+]([O-])c1ccc(C2N=C(N3N=C(c4ccccc4)CC3c3c(F)cccc3F)S2)cc1 (configuration not stated) ?
output: 31.2

input: Then what about the compound Cc1ccc(/C=N/NC(=O)Cc2csc(N3N=C(c4ccccc4)CC3c3c(F)cccc3F)n2)cc1 (configuration not stated) ?
output: 125
